# Test system: GM3
# METHOD_NOTES: GM3 Elisa assay
# Assay type: cell-based
# CONDITION_SET: Table 3 (IC 50 Values); B16-FO cells; read-out: IC50_uM_Mean
READOUT_KIND: IC50

query: IC50 for "CCCCCCCC(=O)N[C@H](CN1CC[C@H](c2ccccc2)C1)[C@H](O)c1ccc2c(c1)OCCO2" ?
result: 3000 to 10000 nM

query: Please give the result for "O=C(CCCCCNC(=O)C(F)(F)F)N[C@H](CN1CCCC1)[C@H](O)c1ccc2c(c1)OCCO2" too.
result: 3000 to 10000 nM

query: Please give the result for "CCCCCCOc1ccc([C@@H](O)[C@@H](CN2CC[C@H](O)C2)NC(=O)CCOc2ccc(Cl)cc2)cc1" too.
result: ≤ 100 nM

* * *

# System: GM3
# METHOD_NOTES: GM3 Elisa assay
# Format: cell-based
# CONDITION_SET: Table 3 (IC 50 Values); B16-FO cells; read-out: IC50_uM_Mean
READOUT_KIND: IC50

Guide cases for IC50, answers given:
COMPOUND: COc1ccc(C(=O)CCCCC(=O)N[C@H](CN2CCCC2)[C@H](O)c2ccc(OCCC(C)C)cc2)cc1 [Compound 438]
IC50: ≤ 0.1 µM
--
COMPOUND: O=C(N[C@H](CO)[C@H](O)c1ccc(C(F)(F)F)cc1)OCc1ccccc1 [Compound 483]
IC50: 3 to 10 µM
--
COMPOUND: COc1ccc(C(=O)CCCCCC(=O)N[C@H](CN2CCCC2)[C@H](O)c2ccc(-c3ccccc3)cc2)cc1 [Compound 693]
IC50: ≤ 0.1 µM

query: IC50 for CCCCCCCC(=O)N[C@H](CN1CCCC1(C)C)[C@H](O)c1ccc2c(c1)OCCO2 [Compound 553] ?
result: 3 to 10 µM

* * *

pIC50 listing for selected molecules.
# System: GM3
# METHOD_NOTES: GM3 Elisa assay
# Format: cell-based
# CONDITION_SET: Table 3 (IC 50 Values); B16-FO cells; read-out: IC50_uM_Mean
pIC50: −log10 of the molar value.

Guide cases for pIC50, answers given:
SMILES: COc1ccc(C(=O)CCCCCC(=O)N[C@H](CN2CCC[C@@H]2C)[C@@H](O)c2ccc3c(c2)OCCO3)cc1
pIC50: ≥ 7.00
//
SMILES: COc1ccc(OCCCC(=O)N[C@H](CN2CC[C@@H](F)C2)[C@H](O)c2ccc(OCCCCF)cc2)cc1
pIC50: ≥ 7.00
//
SMILES: COc1ccc(OCCC(=O)N[C@H](CN2CCCC2)[C@H](O)c2ccc(OC)c(C)c2)cc1
pIC50: 6.00 to 7.00
//
SMILES: CC(C)Oc1ccc(C(=O)NCCCCCC(=O)N[C@H](CN2CCCC2)[C@H](O)c2ccc3c(c2)OCCO3)cc1
pIC50: ≥ 7.00
//
SMILES: O=C(CC1CCOCC1)N[C@H](CN1CCCC1)[C@H](O)c1ccc2c(c1)OCCO2
pIC50: 5.00 to 5.52
//
SMILES: COc1ccc(C(=O)CCCCC(=O)N[C@H](CN2CC[C@H](O)C2)[C@H](O)c2ccc(OCCCCF)cc2)cc1
pIC50: ≥ 7.00

Would you kindly look at the next entry?
query: pIC50 for "COc1ccc(C(=O)CCCC(=O)N[C@H](CN2CC[C@H](O)C2)[C@H](O)c2ccc(OCCCCF)cc2)cc1" ?
result: ≥ 7.00
